- TARGET ENTITY: Transient receptor potential cation channel subfamily A member 1 (Homo sapiens, UniProt O75762)
- Sequence (O75762 whole entry): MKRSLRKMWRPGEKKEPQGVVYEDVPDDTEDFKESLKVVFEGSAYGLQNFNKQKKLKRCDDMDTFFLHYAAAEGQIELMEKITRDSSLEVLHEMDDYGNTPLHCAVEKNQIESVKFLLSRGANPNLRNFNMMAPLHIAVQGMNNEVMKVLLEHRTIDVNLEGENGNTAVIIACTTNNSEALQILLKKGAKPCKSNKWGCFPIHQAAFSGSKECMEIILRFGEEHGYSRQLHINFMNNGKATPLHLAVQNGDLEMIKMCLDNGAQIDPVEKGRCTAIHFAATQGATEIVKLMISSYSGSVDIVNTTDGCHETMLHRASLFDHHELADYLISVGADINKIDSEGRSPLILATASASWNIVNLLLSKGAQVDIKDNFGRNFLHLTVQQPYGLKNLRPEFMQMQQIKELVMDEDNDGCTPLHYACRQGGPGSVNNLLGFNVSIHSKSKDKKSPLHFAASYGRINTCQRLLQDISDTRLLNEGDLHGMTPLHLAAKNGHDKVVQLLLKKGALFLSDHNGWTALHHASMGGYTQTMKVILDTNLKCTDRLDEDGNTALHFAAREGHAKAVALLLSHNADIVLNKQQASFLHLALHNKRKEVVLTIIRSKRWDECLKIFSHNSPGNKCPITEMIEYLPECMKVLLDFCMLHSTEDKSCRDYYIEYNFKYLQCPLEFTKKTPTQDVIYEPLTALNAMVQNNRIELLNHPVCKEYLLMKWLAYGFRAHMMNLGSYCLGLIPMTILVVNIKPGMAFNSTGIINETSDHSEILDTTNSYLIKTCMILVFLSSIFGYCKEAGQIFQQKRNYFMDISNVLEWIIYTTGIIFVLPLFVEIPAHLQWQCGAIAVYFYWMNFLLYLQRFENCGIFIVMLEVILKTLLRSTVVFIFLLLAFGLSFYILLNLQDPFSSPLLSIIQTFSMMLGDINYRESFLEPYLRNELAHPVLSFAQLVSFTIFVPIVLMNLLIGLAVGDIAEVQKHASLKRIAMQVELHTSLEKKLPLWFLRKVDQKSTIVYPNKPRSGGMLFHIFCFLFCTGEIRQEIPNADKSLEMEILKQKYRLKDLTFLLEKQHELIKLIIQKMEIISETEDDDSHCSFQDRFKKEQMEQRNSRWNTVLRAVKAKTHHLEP
- EXPERIMENTAL DETAILS: Agonist activity at human TRPA1 channel expressed in HEK293 cells assessed as increase in intracellular calcium influx
- Format: functional, cell-based
pEC50: −log10 of the molar value.
// 0.0 strictly below 5 in pEC50; 1.0 otherwise

smi=O=C1NC(c2cccc([N+](=O)[O-])c2)=CCN1c1ccccc1O category_label=0.0
smi=Cc1ccc(C(C)C)cc1O category_label=1.0
smi=NC(=O)c1cccc(-c2cccc(OC(=O)NC3CCCCC3)c2)c1 category_label=0.0
smi=CC1(C)C[C@H]2C=C(C=O)[C@]3(C=O)C[C@]3(C)[C@H]2C1 category_label=1.0
